Reference source: PubChem BioAssay

assay: differential killing of epithelial or mesenchymal cells, primary screen, imaging, PC-3E GFP, TEM4-18 mCherry, co-culture (AID 1345086); settings: imaging cell counts, measured here: epithelial PC-3E GFP cell survival, at 1 µM;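 also: cells exposed to compound for 72 h before imaging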
Task for the reader: assign each of the following compounds its reported normalised cell number.

Query: Suppose we examine the compound COc1ccc2[nH]c(S(=O)Cc3ncc(C)c(OC)c3C)nc2c1 (stereo not given) ; what normalised cell number value has been reported?
Response: 1.11

Query: Data request, read-out normalised cell number, for C[C@]12CCC(=O)C=C1[C@@H]1C[C@@H]1C1C2CC[C@@]2(C)C1[C@@H]1C[C@@H]1[C@@]21CCC(=O)O1 (stereo not given in full)
Response: 1.4

Query: Bench note: what normalised cell number did O=C1c2ccccc2C(=O)C1c1ccc(Cl)cc1 show?
Response: 1.18

Query: Return reported normalised cell number; argument: C[C@H]1C[C@H]2O[C@@H]2/C=C\C=C\C(=O)Cc2c(Cl)c(O)cc(O)c2C(=O)O1
Response: 0.89

Query: Which normalised cell number reading was recorded for the compound COc1c(N2CC[C@@H](CN)C2)c(F)cc2c(=O)c(C(=O)O)cn(Cc3ccc(-c4ccccc4)cc3)c12 ?
Response: 0.86
